B1: MYL5 (parent)
chain: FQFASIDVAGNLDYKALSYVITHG

- Variants of: B1
- protocol-notes: protein stability index of a GFP-peptide fusion (GPS, HEK-293T) (PSI 1-6); higher = more stable;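 further: lentivirally expressed fusions sorted by FACS into six bins by GFP to DsRed ratio, PSI derived from sequencing read proportions per bin multiplied by bin number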
- experimental-setup: c terminus: a fixed tail appended
Records here are stratified by protein stability index; strata: LOW = under 2, MID = from 2 up to 3, HIGH = 3 and over

F1P | MID
A4H | HIGH
A16T | MID
N11P | HIGH
G10K | MID
I21S | LOW
A9P | LOW
I21A | MID
V20A | HIGH
N11K | MID

Here is the next item to consider.
Categorize the following entry: I21V
MID
